experiment: Cytotoxicity against human 184B5 cells after 72 hrs by MTT assay; type: cell-based; conditions: 184b5, 72 h
Value kind: TGI (µM)
Number only, in µM; omit the unit.

Cc1ccc(OC(=O)Nc2ccc([Se]C#N)cc2)cc1 | 8.7

Task: What TGI value was documented for this compound, O=C(Nc1ccc([Se][Se]c2ccc(NC(=O)OCC3=Cc4ccccc4S3(=O)=O)cc2)cc1)OCC1=Cc2ccccc2S1(=O)=O ?
Result: 5

Task: Then this compound: CCCCOC(=O)Nc1ccc([Se][Se]c2ccc(NC(=O)OCCCC)cc2)cc1
Result: 26

Task: Then this compound: CCOC(=O)Nc1ccc([Se][Se]c2ccc(NC(=O)OCC)cc2)cc1
Result: 16.7

Task: Then this compound: N#C[Se]c1ccc(NC(=O)Oc2ccc(Cl)cc2)cc1
Result: 19.9

Task: Then this compound: N#C[Se]c1ccc(NC(=O)OCC2c3ccccc3-c3ccccc32)cc1
Result: 25.8

Task: Then this compound: CCCCOC(=O)Nc1ccc([Se]C#N)cc1
Result: 14.5

Task: Then this compound: CC(C)COC(=O)Nc1ccc([Se][Se]c2ccc(NC(=O)OCC(C)C)cc2)cc1
Result: 10.5

Task: Then this compound: COc1ccc(OC(=O)Nc2ccc([Se][Se]c3ccc(NC(=O)Oc4ccc(OC)cc4)cc3)cc2)cc1
Result: 8.1

====

experiment: Cytotoxicity against human 184B5 cells after 72 hrs by MTT assay; type: cell-based; conditions: 184B5 cells
Value kind: GI50 at 72 h (µM)
Number only, in µM; omit the unit.

Check out these entries, answers already filled in.
N#C[Se]c1ccc(NC(=O)Oc2ccccc2)cc1 | 0.4
N#C[Se]c1ccc(NC(=O)Oc2ccc(F)cc2)cc1 | 6.9
N#C[Se]c1ccc(NC(=O)OCC2=Cc3ccccc3S2(=O)=O)cc1 | 5.3
COc1ccc(OC(=O)Nc2ccc([Se][Se]c3ccc(NC(=O)Oc4ccc(OC)cc4)cc3)cc2)cc1 | 3.4
CCOC(=O)Nc1ccc([Se][Se]c2ccc(NC(=O)OCC)cc2)cc1 | 5.7
CCCCOC(=O)Nc1ccc([Se][Se]c2ccc(NC(=O)OCCCC)cc2)cc1 | 7.2
O=C(Nc1ccc([Se][Se]c2ccc(NC(=O)OCc3ccccc3)cc2)cc1)OCc1ccccc1 | 0.1
O=C(Nc1ccc([Se][Se]c2ccc(NC(=O)OCC3c4ccccc4-c4ccccc43)cc2)cc1)OCC1c2ccccc2-c2ccccc21 | 6.5

Task: What GI50 at 72 h value was documented for this molecule, CC(C)COC(=O)Nc1ccc([Se][Se]c2ccc(NC(=O)OCC(C)C)cc2)cc1 ?
Result: 5.5

Task: Then this molecule: O=C(Nc1ccc([Se][Se]c2ccc(NC(=O)OCC3=Cc4ccccc4S3(=O)=O)cc2)cc1)OCC1=Cc2ccccc2S1(=O)=O
Result: 2.6

Task: Then this molecule: CCCCCCOC(=O)Nc1ccc([Se][Se]c2ccc(NC(=O)OCCCCCC)cc2)cc1
Result: 4.6

====

tested on: HT-29; assay: Cytotoxicity against human HT-29 cells after 72 hrs by MTT assay; format: functional; conditions: HT-29, 72 h
Value kind: LC50 (µM)
Number only, in µM; omit the unit.

N#C[Se]c1ccc(NC(=O)OCc2ccccc2)cc1 | 69.1
Cc1ccc(OC(=O)Nc2ccc([Se][Se]c3ccc(NC(=O)Oc4ccc(C)cc4)cc3)cc2)cc1 | 70.9
O=C(Nc1ccc([Se][Se]c2ccc(NC(=O)Oc3ccccc3)cc2)cc1)Oc1ccccc1 | 70.2
O=C(Nc1ccc([Se][Se]c2ccc(NC(=O)OCc3ccccc3)cc2)cc1)OCc1ccccc1 | 69

Task: What LC50 value was documented for this molecule, COc1ccc(OC(=O)Nc2ccc([Se]C#N)cc2)cc1 ?
Result: 69.6

Task: Then this molecule: N#C[Se]c1ccc(NC(=O)Oc2ccc(Cl)cc2)cc1
Result: 68.7

Task: Then this molecule: N#C[Se]c1ccc(NC(=O)OCC2c3ccccc3-c3ccccc32)cc1
Result: 70.2

====

experiment: Antioxidant activity assessed as DPPH radical scavenging activity at 0.5 mg/ml after 180 mins; format: physicochemical; conditions: 3 h
Known inhibition (INH) of a selection of molecules

CCCCCCOC(=O)Nc1ccc([Se]C#N)cc1 | > 25%
CCCCCCOC(=O)Nc1ccc([Se][Se]c2ccc(NC(=O)OCCCCCC)cc2)cc1 | < 16%
N#C[Se]c1ccc(NC(=O)OCC2c3ccccc3-c3ccccc32)cc1 | > 25%

Please turn your attention to the following entry.
Task: What inhibition (INH) value was documented for this molecule, Cc1ccc(OC(=O)Nc2ccc([Se][Se]c3ccc(NC(=O)Oc4ccc(C)cc4)cc3)cc2)cc1 ?
Result: > 50%

====

Known log10 TGI of a selection of compounds
tested on: HT-29; test: Cytotoxicity against human HT-29 cells after 72 hrs by MTT assay; type: functional; conditions: HT-29, 72 h
Parameter value (number): base-10 log of TGI in µM.

O=C(Nc1ccc([Se][Se]c2ccc(NC(=O)OCC3c4ccccc4-c4ccccc43)cc2)cc1)OCC1c2ccccc2-c2ccccc21 | 1.69
O=C(Nc1ccc([Se][Se]c2ccc(NC(=O)Oc3ccc(Cl)cc3)cc2)cc1)Oc1ccc(Cl)cc1 | 1.64
CCCOC(=O)Nc1ccc([Se][Se]c2ccc(NC(=O)OCCC)cc2)cc1 | 1.67

Task: What log10 TGI value was documented for this compound, CCCCOC(=O)Nc1ccc([Se][Se]c2ccc(NC(=O)OCCCC)cc2)cc1 ?
Result: 1.74

Task: Then this compound: COc1ccc(OC(=O)Nc2ccc([Se]C#N)cc2)cc1
Result: 1.62

Task: Then this compound: O=C(Nc1ccc([Se][Se]c2ccc(NC(=O)OCC3=Cc4ccccc4S3(=O)=O)cc2)cc1)OCC1=Cc2ccccc2S1(=O)=O
Result: 0.73

Task: Then this compound: O=C(Nc1ccc([Se][Se]c2ccc(NC(=O)Oc3ccccc3)cc2)cc1)Oc1ccccc1
Result: 1.62

Task: Then this compound: N#C[Se]c1ccc(NC(=O)Oc2ccc(F)cc2)cc1
Result: 1.58

====

test: Antioxidant activity assessed as ABTS radical scavenging activity by measuring Trolox equivalent antioxidant capacity after 6 mins; assay type: physicochemical; conditions: 0.1 h
Known Activity of a selection of compounds
Number only, in µg/µL; omit the unit.

CCOC(=O)Nc1ccc([Se][Se]c2ccc(NC(=O)OCC)cc2)cc1 | 13.6
CCOC(=O)Nc1ccc([Se]C#N)cc1 | 17.4
N#C[Se]c1ccc(NC(=O)OCc2ccc([N+](=O)[O-])cc2)cc1 | 9.66

Please turn your attention to the following entry.
Task: What Activity value was documented for this compound, N#C[Se]c1ccc(NC(=O)Oc2ccccc2)cc1 ?
Result: 29

====

Known CC50 of a selection of molecules
system: MCF7; test: Cytotoxicity against human MCF7 cells after 72 hrs by MTT assay; assay type: functional; conditions: MCF7, 72 h, read-out: LC50 (the source's name)
Number only, in µM; omit the unit.

COc1ccc(OC(=O)Nc2ccc([Se][Se]c3ccc(NC(=O)Oc4ccc(OC)cc4)cc3)cc2)cc1 | 76.8

Task: What CC50 value was documented for this molecule, C=CCOC(=O)Nc1ccc([Se]C#N)cc1 ?
Result: 71.2

====

experiment: Cytotoxicity against human PC3 cells after 72 hrs by MTT assay; assay type: functional; conditions: PC-3, 72 h
Value kind: GI50
Please state the value followed by its unit.

Check out these entries, answers already filled in.
CCOC(=O)Nc1ccc([Se]C#N)cc1 | 9.9 µM
CCCCCCOC(=O)Nc1ccc([Se][Se]c2ccc(NC(=O)OCCCCCC)cc2)cc1 | 0.6 µM
O=C(Nc1ccc([Se][Se]c2ccc(NC(=O)Oc3ccccc3)cc2)cc1)Oc1ccccc1 | 5.3 µM
N#C[Se]c1ccc(NC(=O)OCC2=Cc3ccccc3S2(=O)=O)cc1 | 6.3 µM
O=C(Nc1ccc([Se][Se]c2ccc(NC(=O)OCC3c4ccccc4-c4ccccc43)cc2)cc1)OCC1c2ccccc2-c2ccccc21 | 9.2 µM

Task: What GI50 value was documented for this molecule, N#C[Se]c1ccc(NC(=O)Oc2ccccc2)cc1 ?
Result: 9.1 µM

Task: Then this molecule: CCCOC(=O)Nc1ccc([Se]C#N)cc1
Result: 21.1 µM

Task: Then this molecule: N#C[Se]c1ccc(NC(=O)Oc2ccc(F)cc2)cc1
Result: 11.8 µM

Task: Then this molecule: N#C[Se]c1ccc(NC(=O)Oc2ccc(Cl)cc2)cc1
Result: 6.4 µM

====

experiment: Cytotoxicity against human 184B5 cells after 72 hrs by MTT assay; assay type: cell-based; settings: 184b5, 72 h
Value kind: TGI (µM)
Number only, in µM; omit the unit.

Check out these entries, answers already filled in.
N#C[Se]c1ccc(NC(=O)OCc2ccc([N+](=O)[O-])cc2)cc1 | 18
CCCOC(=O)Nc1ccc([Se][Se]c2ccc(NC(=O)OCCC)cc2)cc1 | 24.5

Please turn your attention to the following entry.
Task: What TGI value was documented for this compound, O=C(Nc1ccc([Se][Se]c2ccc(NC(=O)OCc3ccc([N+](=O)[O-])cc3)cc2)cc1)OCc1ccc([N+](=O)[O-])cc1 ?
Result: 13.8
